EXPERIMENT SUMMARY: DAPI mCherry counterscreen qHTS for Zika virus inhibitors; also: nearly all actives have a fitted effect of over 55% in size
ASSAY SETUP: Vero cells, DAPI nuclear count cytotoxicity, imaging 48-72 h, infected with Zika reporter virus, MOI 1; series mostly up to 32.6 µM
Results filed as inconclusive are left out. Active and inactive are the calls of the source. Calls follow the shape of the dose curve; as a rule, active = well fitted cell-killing curve with a large enough effect; inconclusive = small, poorly fitted or top-dose-only effect; inactive = flat fitted curve, though single readings scatter.
Possible outcomes: yes (1) = active, no (0) = inactive

>  <COMPOUND>
CCOC(=O)c1cccc(NC(=O)CSc2ncc3c(n2)-c2ccc(Cl)cc2N(Cc2ccccc2)S3(=O)=O)c1

>  <CATEGORY LABEL>
no (0)

$$$$
>  <COMPOUND>
Cc1cc(OCCCc2c(C(=O)O)n(Cc3cccnc3)c3c(-c4c(COc5ccc(N6CCN([S+](C)(=O)[O-])CC6)cc5)nn(C)c4C)cccc23)cc(C)c1Cl

>  <CATEGORY LABEL>
yes (1)

$$$$
>  <COMPOUND>
O=C(O)c1cc(O)c2cccc(O)c2c1O[C@@H]1O[C@H](CO)[C@@H](O)[C@H](O)[C@H]1O

>  <CATEGORY LABEL>
no (0)

$$$$
>  <COMPOUND>
N#CC(c1ccc(Cl)cc1)c1c(Cl)cc(-n2ncc(=O)[nH]c2=O)cc1Cl (stereo unspecified)

>  <CATEGORY LABEL>
yes (1)

$$$$
>  <COMPOUND>
CCCCCCCOc1cc2c(cc1/C(C)=C/c1ccc(C(=O)O)cc1)C(C)(C)CCS2(=O)=O

>  <CATEGORY LABEL>
yes (1)

$$$$
>  <COMPOUND>
COc1ccc(-c2cc(=O)c3c(O)cc(O)c(-c4cc(-c5cc(=O)c6c(O)cc(O)cc6o5)ccc4OC)c3o2)cc1

>  <CATEGORY LABEL>
yes (1)

$$$$
>  <COMPOUND>
COc1ccc(-c2ccccc2)cc1NS(=O)(=O)c1cc(Cl)cc(Cl)c1O

>  <CATEGORY LABEL>
yes (1)

$$$$
>  <COMPOUND>
CCc1oc2ccccc2c1C(=O)c1cc(Br)c(O)c(Br)c1

>  <CATEGORY LABEL>
yes (1)

$$$$
>  <COMPOUND>
CC[C@H](C)[C@H]1O[C@]2(CC[C@@H]1C)C[C@@H]1C[C@@H](C/C=C(\C)[C@@H](O[C@H]3C[C@H](OC)[C@@H](O[C@H]4C[C@H](OC)[C@@H](O)[C@H](C)O4)[C@H](C)O3)[C@@H](C)/C=C/C=C3\CO[C@@H]4[C@H](O)C(C)=C[C@@H](C(=O)O1)[C@]34O)O2

>  <CATEGORY LABEL>
yes (1)

$$$$
>  <COMPOUND>
O=C(Nc1ccc(Oc2ccc(Cl)cc2)c(Cl)c1)c1cc(I)cc(I)c1O

>  <CATEGORY LABEL>
yes (1)

$$$$
>  <COMPOUND>
CC1(C)CCC(C)(C)c2cc3c(cc21)Sc1ccccc1N=C3c1ccc(C(=O)O)cc1

>  <CATEGORY LABEL>
yes (1)

$$$$
>  <COMPOUND>
CC1CCC(C(=O)N(c2cc(C#CC(C)(C)C)sc2C(=O)O)C2CCC(O)CC2)CC1 (stereo unspecified)

>  <CATEGORY LABEL>
yes (1)

$$$$
>  <COMPOUND>
O=C1NC(=O)c2cc(Nc3ccccc3)c(Nc3ccccc3)cc21

>  <CATEGORY LABEL>
yes (1)

$$$$
>  <COMPOUND>
COC(=O)c1ccc([C@H]2Nc3ccc(S(=O)(=O)Nc4ccc(C)cc4)cc3[C@H]3C=CC[C@H]32)cc1

>  <CATEGORY LABEL>
no (0)

$$$$
>  <COMPOUND>
CN(CC(=O)N(Cc1ccc(C2CCCCC2)cc1)c1ccc(C(=O)O)cc1)S(=O)(=O)c1c(F)c(F)c(F)c(F)c1F

>  <CATEGORY LABEL>
yes (1)

$$$$
>  <COMPOUND>
Cc1nc(N=Nc2cc(S(=O)(=O)O)c3cc([N+](=O)[O-])cc(S(=O)(=O)O)c3c2)c(COP(=O)(O)O)c(C=O)c1O

>  <CATEGORY LABEL>
no (0)

$$$$
>  <COMPOUND>
Cc1cc(-c2ccc(N=Nc3ccc4c(S(=O)(=O)O)cc(S(=O)(=O)O)c(N)c4c3O)c(C)c2)ccc1N=Nc1ccc2c(S(=O)(=O)O)cc(S(=O)(=O)O)c(N)c2c1O

>  <CATEGORY LABEL>
no (0)

$$$$
>  <COMPOUND>
C[C@H](NC(=O)C(=O)Nc1ccccc1C(C)(C)C)C(=O)N[C@@H](CC(=O)O)C(=O)COc1c(F)c(F)cc(F)c1F

>  <CATEGORY LABEL>
no (0)

$$$$
>  <COMPOUND>
Cc1c(C)n(Cc2ccc(-c3ccccc3C(=O)O)cc2)c2ccc(C(=O)N[C@@H](C)c3ccc([N+](=O)[O-])cc3)cc12

>  <CATEGORY LABEL>
yes (1)

$$$$
>  <COMPOUND>
CC1CCN(C(c2ccc(F)cc2)c2ccc(C(C)C(=O)O)cc2-c2ccc(C(F)(F)F)cc2)CC1 (stereo unspecified)

>  <CATEGORY LABEL>
yes (1)

$$$$
>  <COMPOUND>
CCCCc1nn2c(=O)cc(COC(=O)c3ccc(NC(=O)c4ccccc4Cl)cc3)nc2s1

>  <CATEGORY LABEL>
yes (1)

$$$$
>  <COMPOUND>
COc1cc(C2Nc3ccccc3-c3nnc(SCc4ccc(Cl)cc4)nc3O2)ccc1OCC(=O)O (stereo unspecified)

>  <CATEGORY LABEL>
no (0)

$$$$
>  <COMPOUND>
COc1cc2c(c(O)c1OC/C=C(\C)CC/C=C(/C)CCC=C(C)C)CN(C(CCC(=O)O)C(=O)O)C2=O (stereo unspecified)

>  <CATEGORY LABEL>
yes (1)

$$$$
>  <COMPOUND>
Cc1oc2c(cc(NS(=O)(=O)c3ccc(Cl)cc3)c3ccccc32)c1C(=O)OCc1ccccc1

>  <CATEGORY LABEL>
no (0)

$$$$
>  <COMPOUND>
O=C(O)c1ccc(S(=O)(=O)N(Cc2ccc(OC(F)(F)F)cc2)c2ncc(C(F)(F)F)cc2Cl)cc1

>  <CATEGORY LABEL>
yes (1)

$$$$
>  <COMPOUND>
Fc1cc(C2=Nn3c(COc4ccc(Cl)cc4Cl)nnc3S/C2=C\c2ccc(-c3ccc(Cl)cc3)o2)c(Cl)cc1Cl

>  <CATEGORY LABEL>
no (0)

$$$$
>  <COMPOUND>
CCCCc1nn2c(=O)cc(COC(=O)c3ccc(NC(=O)CCc4ccccc4)cc3)nc2s1

>  <CATEGORY LABEL>
no (0)

$$$$
>  <COMPOUND>
CC1(C)CCC(CN2CCN(c3ccc(C(=O)NS(=O)(=O)c4ccc(NCC5CCOCC5)c([N+](=O)[O-])c4)c(Oc4cnc5[nH]ccc5c4)c3)CC2)=C(c2ccc(Cl)cc2)C1

>  <CATEGORY LABEL>
yes (1)

$$$$
>  <COMPOUND>
Cc1ccc(NC(=O)c2ccc3c(O)c(S(=O)(=O)c4ccccc4)c(=O)[nH]c3c2)cc1Cl

>  <CATEGORY LABEL>
no (0)

$$$$
>  <COMPOUND>
CCOC(=O)c1ccc(Nc2nc3ccccc3nc2NS(=O)(=O)c2ccc(Cl)cc2)cc1

>  <CATEGORY LABEL>
yes (1)

$$$$
>  <COMPOUND>
Cc1cc(-c2ccc(N=Nc3c(S(=O)(=O)O)cc4cc(S(=O)(=O)O)cc(N)c4c3O)c(C)c2)ccc1N=Nc1c(S(=O)(=O)O)cc2cc(S(=O)(=O)O)cc(N)c2c1O

>  <CATEGORY LABEL>
no (0)

$$$$
